Biological target: Cholinesterase (Homo sapiens)
Sequence (P06276 whole entry): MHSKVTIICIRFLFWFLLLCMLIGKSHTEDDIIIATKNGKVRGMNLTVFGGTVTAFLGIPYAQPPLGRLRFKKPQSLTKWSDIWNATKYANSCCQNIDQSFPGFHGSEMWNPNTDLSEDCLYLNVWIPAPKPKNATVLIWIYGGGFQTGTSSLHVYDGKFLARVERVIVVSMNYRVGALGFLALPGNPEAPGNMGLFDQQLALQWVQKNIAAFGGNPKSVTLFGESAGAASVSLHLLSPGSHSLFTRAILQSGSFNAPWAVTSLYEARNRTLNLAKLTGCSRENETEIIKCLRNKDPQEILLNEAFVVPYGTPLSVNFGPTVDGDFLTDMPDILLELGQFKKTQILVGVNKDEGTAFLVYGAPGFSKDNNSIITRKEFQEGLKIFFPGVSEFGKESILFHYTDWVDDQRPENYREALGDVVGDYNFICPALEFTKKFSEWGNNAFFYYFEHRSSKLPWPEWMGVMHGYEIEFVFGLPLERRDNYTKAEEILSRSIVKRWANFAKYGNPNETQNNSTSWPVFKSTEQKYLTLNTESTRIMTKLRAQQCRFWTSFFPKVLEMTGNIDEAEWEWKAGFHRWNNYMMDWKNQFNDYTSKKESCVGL
Test: Inhibition of human serum BuChE
value_type: IC50 (µM)
Give bare numbers, in µM.

As a guide, the following entries are already answered.
In [3]: df
Out[3]:
                                chem_smiles                 assayed_target  experimental_value
0  COc1cc(CNCCCCCCNC2=CC(=O)C(NCCCCCCNCc3ccc(O)c(OC)c3)=CC2=O)ccc1O  Cholinesterase (Homo sapiens)                 1.6
1  O=C1C=C(NCCCNCc2ccc(-c3nc4ccccc4s3)cc2)C(=O)C=C1NCCCNCc1ccc(-c2nc3ccccc3s2)cc1  Cholinesterase (Homo sapiens)                35.3
2  COc1cc(CNCCCNC2=CC(=O)C(NCCCNCc3ccc(O)c(OC)c3)=CC2=O)ccc1O  Cholinesterase (Homo sapiens)                8.24

Prompt: What does the record list as IC50 for `O=C1C=C(NCCCNCc2cc3ccccc3o2)C(=O)C=C1NCCCNCc1cc2ccccc2o1` ?
Completion: 2.6
